Taken from ChEMBL document CHEMBL5291721.

Biological target: 5-hydroxytryptamine receptor 3A (Homo sapiens); note: assay procedure not described here
Sequence (P46098 whole entry): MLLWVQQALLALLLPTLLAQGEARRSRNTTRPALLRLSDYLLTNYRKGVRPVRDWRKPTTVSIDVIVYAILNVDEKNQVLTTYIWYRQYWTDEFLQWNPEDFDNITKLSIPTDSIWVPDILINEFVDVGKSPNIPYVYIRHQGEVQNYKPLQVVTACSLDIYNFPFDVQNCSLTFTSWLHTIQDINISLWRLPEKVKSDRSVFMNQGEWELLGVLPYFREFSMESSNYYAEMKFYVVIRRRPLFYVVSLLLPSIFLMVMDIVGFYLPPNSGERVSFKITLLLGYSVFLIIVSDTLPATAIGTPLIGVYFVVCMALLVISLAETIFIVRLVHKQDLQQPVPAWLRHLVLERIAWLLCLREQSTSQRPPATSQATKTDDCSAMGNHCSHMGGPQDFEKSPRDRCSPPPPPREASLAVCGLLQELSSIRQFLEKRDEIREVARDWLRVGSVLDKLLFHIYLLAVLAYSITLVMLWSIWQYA
Type: functional
measurement.kind: AC50

>>> test_value("Clc1cccc(Cl)c1N=C1NCCN1")
"> 30 µM"
>>> test_value("CC[C@@H](CO)NC(=O)[C@@H]1C=C2c3cccc4[nH]cc(c34)C[C@H]2N(C)C1")
"> 30 µM"
>>> test_value("N#Cc1ccccc1-c1cc(-c2ccccn2)cn(-c2ccccc2)c1=O")
"> 30 µM"
>>> test_value("COc1c(O[C@@H]2O[C@H](CO)[C@@H](O)[C@H](O)[C@H]2O)cc2c(c1OC)-c1ccc(SC)c(=O)cc1[C@@H](NC(C)=O)CC2 [THIOCOLCHICOSIDE]")
"> 30 µM"
>>> test_value("[H]/N=C(\\N/C(=N/[H])NCCCCCCNC(=N)NC(=N)Nc1ccc(Cl)cc1)Nc1ccc(Cl)cc1")
"5.9 µM"
>>> test_value("O=C(O)c1ccccc1OP(=O)(O)O")
"> 30 µM"
>>> test_value("CN1C[C@H](C(=O)N[C@]2(C)O[C@@]3(O)[C@@H]4CCCN4C(=O)[C@H](Cc4ccccc4)N3C2=O)C[C@@H]2c3cccc4[nH]cc(c34)C[C@H]21 [DIHYDROERGOTAMINE]")
"> 30 µM"
>>> test_value("CC#CCn1c(N2CCC[C@@H](N)C2)nc2c1c(=O)n(Cc1nc(C)c3ccccc3n1)c(=O)n2C")
"> 30 µM"
>>> test_value("CCOC(=O)NNc1ccc(N(CC)CC(C)O)nn1 (stereo unspecified)")
"> 30 µM"
>>> test_value("CO[C@@]1(NC(=O)Cc2cccs2)C(=O)N2C(C(=O)O)=C(COC(N)=O)CS[C@@H]21")
"> 30 µM"
>>> test_value("CCCN(CCc1cccs1)[C@H]1CCc2c(O)cccc2C1")
"> 30 µM"
>>> test_value("CC(NCCc1ccc(O)cc1)C(O)c1ccc(O)cc1 (stereo unspecified)")
"> 30 µM"
>>> test_value("O=C(O)c1cc(O)c2c3nc4ccccc4oc-3cc(=O)c2n1")
"2.6 µM"
>>> test_value("CCCCC1(CC)C(=O)NC(=O)NC1=O")
"> 30 µM"
>>> test_value("Cc1ccc(NC(=O)C2(c3ccc4c(c3)OC(F)(F)O4)CC2)nc1-c1cccc(C(=O)O)c1")
"> 30 µM"
>>> test_value("CC(=O)c1ccc2c(c1)N(CCCN1CCC(CCO)CC1)c1ccccc1S2")
"> 30 µM"
>>> test_value("Nc1nc(O)c2ncn(COC(CO)CO)c2n1")
"> 30 µM"
>>> test_value("CCCC(C)(COC(N)=O)COC(=O)NC(C)C (stereo unspecified)")
"> 30 µM"
>>> test_value("CC[C@H]1OC(=O)[C@H](C)[C@@H](O[C@H]2C[C@@](C)(OC)[C@@H](O)[C@H](C)O2)[C@H](C)[C@@H](O[C@@H]2O[C@H](C)C[C@H](N(C)C)[C@H]2O)[C@](C)(O)C[C@@H](C)/C(=N\\OCOCCOC)[C@H](C)[C@@H](O)[C@]1(C)O")
"> 30 µM"
>>> test_value("NC(=O)CCC/N=C(\\c1ccc(Cl)cc1)c1cc(F)ccc1O [PROGABIDE]")
"> 30 µM"
>>> test_value("COc1cccc2c1C(=O)c1c(O)c3c(c(O)c1C2=O)C[C@@](O)(C(C)=O)C[C@@H]3O[C@H]1C[C@H](N)[C@H](O)[C@H](C)O1")
"12.8 µM"
>>> test_value("CC(=O)O[C@H]1C[C@@H]2CC[C@@H]3[C@H](CC[C@@]4(C)[C@H]3C[C@H]([N+]3(C)CCCCC3)[C@@H]4OC(C)=O)[C@@]2(C)C[C@@H]1[N+]1(C)CCCCC1")
"> 30 µM"
>>> test_value("CO[C@@]1(NC(=O)CSCC#N)C(=O)N2C(C(=O)O)=C(CSc3nnnn3C)CS[C@@H]21")
"> 30 µM"
>>> test_value("NCCCC(O)(P(=O)(O)O)P(=O)(O)O")
"> 10 µM"
>>> test_value("COC(=O)N[C@@H](C)CNc1nccc(-c2cn(C(C)C)nc2-c2cc(Cl)cc(NS(C)(=O)=O)c2F)n1")
"> 30 µM"
>>> test_value("Cn1c(=O)c2[nH]cnc2n(C)c1=O")
"> 30 µM"

###

Biological target: Histamine H2 receptor (Homo sapiens, UniProt P25021); note: assay procedure not described here
Sequence (P25021 whole entry): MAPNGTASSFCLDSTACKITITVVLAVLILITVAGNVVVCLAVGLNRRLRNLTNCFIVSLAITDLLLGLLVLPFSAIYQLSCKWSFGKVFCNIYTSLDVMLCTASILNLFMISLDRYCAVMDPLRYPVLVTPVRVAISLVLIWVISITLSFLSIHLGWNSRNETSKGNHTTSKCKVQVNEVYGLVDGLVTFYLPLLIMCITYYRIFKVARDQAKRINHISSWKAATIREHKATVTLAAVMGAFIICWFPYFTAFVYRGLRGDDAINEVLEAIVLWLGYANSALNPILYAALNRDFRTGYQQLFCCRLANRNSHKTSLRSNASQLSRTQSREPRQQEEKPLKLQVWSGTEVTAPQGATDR
Type: functional, cell-based
measurement.kind: AC50

>>> test_value("CN1C[C@H](C(=O)N[C@]2(C)O[C@@]3(O)[C@@H]4CCCN4C(=O)[C@H](Cc4ccccc4)N3C2=O)C[C@@H]2c3cccc4[nH]cc(c34)C[C@H]21 [DIHYDROERGOTAMINE]")
"0.62 µM"
>>> test_value("CCC(=O)OCC(=O)[C@@]1(OC(=O)CC)[C@@H](C)C[C@H]2[C@@H]3CCC4=CC(=O)C=C[C@]4(C)[C@@]3(F)[C@@H](O)C[C@@]21C [BETAMETHASONE DIPROPIONATE]")
"> 30 µM"
>>> test_value("CCCOC(C(=O)OC1CCN(C)CC1)(c1ccccc1)c1ccccc1 [PROPIVERINE]")
"> 30 µM"
>>> test_value("COC(=O)[C@H](c1ccccc1Cl)N1CCc2sccc2C1 [CLOPIDOGREL]")
"> 30 µM"
>>> test_value("COc1cc2c(Nc3ccc(Br)cc3F)ncnc2cc1OCC1CCN(C)CC1 [VANDETANIB]")
"> 30 µM"
>>> test_value("NS(=O)(=O)c1cc(C2(O)NC(=O)c3ccccc32)ccc1Cl (stereo not given) [CHLORTHALIDONE]")
"> 10 µM"
>>> test_value("CNC[C@H](O)c1cccc(O)c1 [PHENYLEPHRINE]")
"> 10 µM"
>>> test_value("O=C(O)c1ccccc1OP(=O)(O)O [FOSFOSAL]")
"> 30 µM"
>>> test_value("CCOC(=O)Nc1ccc2c(c1)N(C(=O)CCN1CCOCC1)c1ccccc1S2 [MORICIZINE]")
"> 30 µM"
>>> test_value("NS(=O)(=O)c1cc(C(=O)O)cc(N2CCCC2)c1Oc1ccccc1 [PIRETANIDE]")
"> 30 µM"
>>> test_value("CC1(C)O[C@@H]2[C@@H](CO[C@@]3(COS(N)(=O)=O)OC(C)(C)O[C@@H]23)O1 [TOPIRAMATE]")
"> 10 µM"
>>> test_value("CO/N=C(\\C(=O)N[C@@H]1C(=O)N2C(C(=O)[O-])=C(C[n+]3cccc4c3CCC4)CS[C@H]12)c1csc(N)n1 [CEFPIROME]")
"> 30 µM"
>>> test_value("CC[N+]1(C)CCCC(OC(=O)C(O)(c2ccccc2)c2ccccc2)C1 (stereo not given) [PIPENZOLATE]")
"> 30 µM"
>>> test_value("O=C1CN2Cc3c(ccc(Cl)c3Cl)N=C2N1 [ANAGRELIDE]")
"> 10 µM"
>>> test_value("CC(NCCc1ccc(O)cc1)C(O)c1ccc(O)cc1 (stereo not given) [RITODRINE]")
"> 30 µM"
>>> test_value("[H]/N=C(/N)N[C@H]1[C@H](O)[C@@H](O)[C@H](O[C@@H]2O[C@@H](C)[C@](O)(C=O)[C@H]2O[C@@H]2O[C@@H](CO)[C@H](O)[C@@H](O)[C@@H]2NC)[C@@H](N/C(N)=N\\[H])[C@@H]1O [STREPTOMYCIN]")
"> 30 µM"
>>> test_value("N=C(N)c1ccc2cc(OC(=O)c3ccc(N=C(N)N)cc3)ccc2c1 [NAFAMOSTAT]")
"> 30 µM"
>>> test_value("NS(=O)(=O)c1cc2c(cc1C(F)(F)F)NC(Cc1ccccc1)NS2(=O)=O (stereo not given) [BENDROFLUMETHIAZIDE]")
"> 10 µM"
>>> test_value("Cn1c(=O)c2[nH]cnc2n(C)c1=O [THEOPHYLLINE]")
"> 10 µM"
>>> test_value("CCCCC[C@H](O)/C=C/[C@H]1[C@H](O)CC(=O)[C@@H]1C/C=C\\CCCC(=O)O [DINOPROSTONE]")
"> 30 µM"
